# TARGET_SYSTEM: HIV-1 IN (Human immunodeficiency virus type 1 group M subtype B)
# Construct: pre-incubated with purified recombinant IN (at a final concentration of 200 nM); made in house
# METHOD: In vitro IN inhibition assay (3’-processing and strand transfer)
# Type: biochemical
# MEASUREMENT_CONDITIONS: Mn2+ cofactor (7.5 mM MnCl2); read-out: Inhibition of IN catalytic activity IC50, Strand Transfer
PROPERTY: IC50

[
  {
    "SMILES_NOTATION": "COc1cc(NC(=O)C(=S)NN2C(=O)C(=Cc3cc(Br)cc(Br)c3O)SC2=S)cc(OC)c1OC",
    "RESULT": "35 µM"
  },
  {
    "SMILES_NOTATION": "O=C(Nc1cccc([N+](=O)[O-])c1)C(=S)NN1C(=O)C(=Cc2ccc(Cl)cc2)SC1=S",
    "RESULT": "> 100 µM"
  },
  {
    "SMILES_NOTATION": "CCOc1cccc(C=C2SC(=S)N(NC(=S)C(=O)Nc3cc(OC)c(OC)c(OC)c3)C2=O)c1O",
    "RESULT": "> 100 µM"
  },
  {
    "SMILES_NOTATION": "COc1cc(C=C2SC(=S)N(NC(=S)C(=O)Nc3ccc(-n4cnnn4)c(C)c3)C2=O)cc(OC)c1OC",
    "RESULT": "> 100 µM"
  }
]

====

Catalogue of IC50 values
# TARGET_SYSTEM: human apurinic/apyrimidinic endonuclease 1 (APE1) (Homo sapiens, UniProt P27695)
# Construct: His; made in house
# Sequence (P27695 whole entry): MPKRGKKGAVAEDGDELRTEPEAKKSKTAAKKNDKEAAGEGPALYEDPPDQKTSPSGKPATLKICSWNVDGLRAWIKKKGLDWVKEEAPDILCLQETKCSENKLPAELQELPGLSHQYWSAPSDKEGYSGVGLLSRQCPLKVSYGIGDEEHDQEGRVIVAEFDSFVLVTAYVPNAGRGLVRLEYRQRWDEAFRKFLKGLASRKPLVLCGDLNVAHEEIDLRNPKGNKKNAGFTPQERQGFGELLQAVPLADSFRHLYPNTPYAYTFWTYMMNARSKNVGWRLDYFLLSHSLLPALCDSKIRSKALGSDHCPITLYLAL
# METHOD: APE1 inhibition assay
# Format: biochemical
# MEASUREMENT_CONDITIONS: read-out: Inhibition of APE1 catalytic activity IC50
PROPERTY: IC50

[
  {
    "SMILES_NOTATION": "CCOc1cccc(C=C2SC(=S)N(NC(=S)C(=O)Nc3ccc(O)cc3)C2=O)c1O",
    "RESULT": "> 100 µM"
  },
  {
    "SMILES_NOTATION": "O=C(Nc1ccc(Cl)cc1)C(=S)NN1C(=O)C(=Cc2ccc([N+](=O)[O-])o2)SC1=S",
    "RESULT": "93 µM"
  },
  {
    "SMILES_NOTATION": "C=CCc1cccc(C=C2SC(=S)N(NC(=S)C(=O)Nc3cc(OC)c(OC)c(OC)c3)C2=O)c1O",
    "RESULT": "> 100 µM"
  },
  {
    "SMILES_NOTATION": "CCOc1cccc(C=C2SC(=S)N(NC(=S)C(=O)Nc3cc(OC)c(OC)c(OC)c3)C2=O)c1O",
    "RESULT": "> 100 µM"
  },
  {
    "SMILES_NOTATION": "COc1cc(Br)cc(C=C2SC(=S)N(NC(=S)C(=O)Nc3ccc(O)cc3)C2=O)c1O",
    "RESULT": "> 100 µM"
  },
  {
    "SMILES_NOTATION": "Cc1ccc(C(=O)C=C2SC(=S)N(NC(=S)C(=O)Nc3ccccc3)C2=O)cc1",
    "RESULT": "> 100 µM"
  },
  {
    "SMILES_NOTATION": "COc1cc(NC(=O)C(=S)NN2C(=O)C(=Cc3ccc([N+](=O)[O-])o3)SC2=S)cc(OC)c1OC",
    "RESULT": "> 100 µM"
  },
  {
    "SMILES_NOTATION": "O=C(Nc1cccc([N+](=O)[O-])c1)C(=S)NN1C(=O)C(=Cc2ccc(Cl)cc2)SC1=S",
    "RESULT": "76 µM"
  }
]
